The values you see were collected from patent US20200331850A1.

run-description: PK protocol: pharmacokinetic parameters in male Sprague Dawley rats (intravenous or oral)
Format: in vivo
test-parameters: plasma, oral administration, 3 mg/kg, rat
Where a name gives a salt, the structure may show the parent alone.
property: CL/F (mL/min/kg)

| molecule | property | endpoint-result |
| --- | --- | --- |
| CCN(CC)CCCS(=O)(=O)NC(=O)Nc1c2c(cc3c1CCC3)CCC2 [Example 3, potassium salt] | CL/F | 22.6 |

###

run-description: PK protocol: pharmacokinetic parameters in male Sprague Dawley rats (intravenous or oral)
Assay type: in vivo
test-parameters: plasma, oral administration, 3 mg/kg, rat
Structures can show the parent of a compound that is named as a salt.
property: Tmax (min)

| compound | property | endpoint-result |
| --- | --- | --- |
| CCN(CC)CCCS(=O)(=O)NC(=O)Nc1c2c(cc3c1CCC3)CCC2 [Example 3, potassium salt] | Tmax | 25.2 |

###

run-description: PK protocol: pharmacokinetic parameters in male Sprague Dawley rats (intravenous or oral)
Assay type: in vivo
test-parameters: plasma, oral administration, 3 mg/kg, rat
Structures can show the parent of a compound that is named as a salt.

| compound | unit | bioavailability |
| --- | --- | --- |
| CCN(CC)CCCS(=O)(=O)NC(=O)Nc1c2c(cc3c1CCC3)CCC2 [Example 3, potassium salt] | % | 64.1 |

###

# reported clearance; entries follow
run-description: PK protocol: pharmacokinetic parameters in male Sprague Dawley rats (intravenous or oral)
Assay type: in vivo
test-parameters: plasma, intravenous administration, 1 mg/kg, rat
Counter-ions that a name gives are not always drawn.

| molecule | unit | clearance |
| --- | --- | --- |
| CN(C)CCCS(=O)(=O)NC(=O)Nc1c2c(cc3c1CCC3)CCC2 [Example 8, potassium salt] | mL/min/kg | 7.1 |
| O=C(Nc1c2c(cc3c1CCC3)CCC2)NS(=O)(=O)CCN1CCC1 [Example 29, Potassium Salt] | mL/min/kg | 6 |
| CCN(CC)CCCS(=O)(=O)NC(=O)Nc1c(-c2cccnc2)cc(F)cc1C(C)C [Example 37] | mL/min/kg | 28.2 |
| CCN(CC)CCCS(=O)(=O)NC(=O)Nc1c2c(cc3c1CCC3)CCC2 [Example 3, potassium salt] | mL/min/kg | 14.2 |
